- System: CCRF-CEM leukemia
- experiment: NCI-60 one-dose screen, 48 h (100 = growth as untreated, 0 = no growth, -100 = all killed)
- setup conditions: 10 µM unless noted
The panel holds about 83,000 compounds, 20% with a hit somewhere; the sample as a whole holds those more often.
Each record here notes measured growth.

{"columns": ["molecule", "study system", "units text", "growth"],
 "data": [
  ["CC(Oc1ccc(-c2ccccc2)cc1)C(=O)O (stereo unspecified)", "CCRF-CEM leukemia", "%", 98.4],
  ["N#CCCc1ccccc1", "CCRF-CEM leukemia", "%", 96.2],
  ["O=C(O)C(F)F", "CCRF-CEM leukemia", "%", 110],
  ["Cc1nnc([S-])o1.[Au+].c1ccc([PH+](c2ccccc2)c2ccccc2)cc1", "CCRF-CEM leukemia", "%", 11.1],
  ["O=P1(N(CCCl)CCCl)NCCCO1 (stereo unspecified)", "CCRF-CEM leukemia", "%", 95.6],
  ["C[C@@]12CCCc3coc(c31)C(=O)c1cc3c(cc12)C(=O)C1=C(NCCS1(=O)=O)C3=O", "CCRF-CEM leukemia", "%", -28.7],
  ["C[N+]12CCC34C5=CC(=O)C(=O)C=C5[N+]5(C)C(=O)CC6OCC=C(C1)C(CC32)C6C45 (stereo unspecified)", "CCRF-CEM leukemia", "%", 102],
  ["O=C1C=C(N2CC2)c2ccccc2C1=O", "CCRF-CEM leukemia", "%", -11.5],
  ["CCOC(=O)c1ccccc1C(=O)OCC", "CCRF-CEM leukemia", "%", 94.8],
  ["C[C@]12C[C@H](c3ccoc3)OC(=O)[C@H]1CC[C@@]1(C)[C@@H]2[C@H]2C=C[C@]1(O)C(=O)O2", "CCRF-CEM leukemia", "%", 96],
  ["COc1ccc(O)c2c(=O)c3c(OC)cc4c(c3oc12)[C@@H]1C=CO[C@@H]1O4", "CCRF-CEM leukemia", "%", 92.6]
]}

====

Each record here notes measured growth.
- System: MDA-MB-435 melanoma
- experiment: NCI-60 one-dose screen, 48 h (100 = growth as untreated, 0 = no growth, -100 = all killed)
- setup conditions: 10 µM unless noted
Compounds without any hit were thinned out: in the full panel of roughly 83,000, 20% have a hit.
observable: growth (%)

{"columns": ["compound", "observable", "meas value"],
 "data": [
  ["C[C@]12CCc3sc(Nc4ccc(F)cc4)nc3C1=CC[C@@H]1[C@@H]2CC[C@]2(C)C(=O)CC[C@@H]12", "growth", 57],
  ["Cc1ccccc1-n1c(/C=C\\c2ccccn2)nc2ccccc2c1=O", "growth", 66.5],
  ["Cc1cc(N(CCCl)CCCl)ccc1C=Nc1ccc(-c2csc(-c3ccccc3)n2)cc1", "growth", 95.2],
  ["CC1=C(C)C(=O)O[C@@H]([C@](C)(O)[C@]2(O)CC[C@@]3(O)[C@@H]4C[C@H]5O[C@]56CC=CC(=O)[C@]6(C)[C@H]4CC[C@]23C)C1", "growth", 3.13],
  ["O=C1c2ccccc2C(=O)N1N1CC1c1ccccc1 (stereo not given)", "growth", 102],
  ["COc1ccc2c(c1)C1(C)CCN(C)CC(C1)C2O (stereo not given)", "growth", 105],
  ["C[C@]12CCc3sc(Nc4ccc(OC(F)(F)F)cc4)nc3C1=CC[C@@H]1[C@@H]2CC[C@]2(C)C(=O)CC[C@@H]12", "growth", 77.6],
  ["N#CC(C#N)=Cc1cccc(F)c1", "growth", 107],
  ["Nc1c(Cl)c(Cl)nc(C(=O)O)c1Cl", "growth", 106],
  ["C=CCOC(=O)C(Br)CC (stereo not given)", "growth", 109]
]}
